Can you tell me pIC50 for the items I'm about to list?
*1 amine or outer side, *2 acyl side, *3 side chain or, on linkers, in order; H or OH if unused. Where a SMILES comes first, the peptide text is derived from it. [ ]: non-standard residue; d: D form. The star is where a group is joined. Phenylsulfonyl(4-anisamido) = COc1ccc(C(=O)Nc2ccc(S(=O)(=O)*)cc2)cc1; X1 = O=C(Nc1ccc(S(=O)(=O)*)cc1)c1ccc(OC(F)(F)F)cc1; d(γGlu) = O=C(O)[C@@H](CCC(=O)[*:2])N[*:1]; d(βAsp) = O=C(O)[C@@H](CC(=O)[*:2])N[*:1]; NMeI = CC[C@H](C)[C@H](NC)C(=O)O; NMeE = CN[C@@H](CCC(=O)O)C(=O)O; β3hP = O=C(O)C[C@@H]1CCCN1; Dab = NCC[C@H](N)C(=O)O; Dap = NC[C@H](N)C(=O)O
Conceptually, pIC50 converts a concentration in mol/L into minus its log10.

CC[C@H](C)[C@@H](C(=O)N1CCC[C@H]1CC(N)=O)N(C)C(=O)[C@H](CC(C)C)NC(=O)[C@H](CCN)NC(=O)CC[C@@H](NS(=O)(=O)c1ccc(NC(=O)c2ccc(OC(F)(F)F)cc2)cc1)C(=O)O [Compound 701] ({X1-d(γGlu)}-[Dab]L[NMeI][β3hP]-NH2; N-terminus assumed) on human MMP13 (Homo sapiens, UniProt P45452) gives pIC50 = 6.94

Let me check: CC[C@H](C)[C@@H](C(=O)NCCCCC(N)=O)N(C)C(=O)[C@H](CC(C)C)NC(=O)[C@@H]1C[C@H](N)CN1C(=O)CC[C@@H](NS(=O)(=O)c1ccc(NC(=O)c2ccc(C(N)=O)cc2)cc1)C(=O)O , system human MMP13 (Homo sapiens, UniProt P45452), measured pIC50 is 6.60

For CC(C)C[C@H](NC(=O)[C@@H]1C[C@H](N)CN1C(=O)CC[C@@H](NS(=O)(=O)c1ccc(NC(=O)c2ccc(C(N)=O)cc2)cc1)C(=O)O)C(=O)N(C)[C@@H](CCC(=O)O)C(=O)NCCCCC(N)=O on human MMP13 (Homo sapiens, UniProt P45452), measured pIC50 was 6.62

Entry COc1ccc(C(=O)Nc2ccc(S(=O)(=O)N[C@H](CC(=O)N[C@@H](CN)C(=O)N[C@@H](CC(C)C)C(=O)N(C)[C@@H](CCC(=O)O)C(=O)N3CCC[C@H]3CC(N)=O)C(=O)O)cc2)cc1 [Compound 691] ({Phenylsulfonyl(4-anisamido)-d(βAsp)}-[Dap]L[NMeE][β3hP]-NH2; N-terminus assumed) , tested on human MMP13 (Homo sapiens, UniProt P45452), has a reported pIC50 of 6.85

====

target: MMP2 (Homo sapiens)
procedure-text: Inhibitory effects on human MMP2 (Method 1), enzyme assay with MOCAc-Pro-Leu-Gly-Leu-A2pr(Dnp)-Ala-Arg-NH2 substrate, 96-well
Type: biochemical
run-conditions: Test Example No. 1-1 (Method 1, 96-well microplate); read-out: Human MMP2, IC50
Experimental: In a reaction solution [50 mmol/L Tris-HCl (pH 7.5), 150 mmol/L NaCl, 10 mmol/L CaCl2, 0.05% Brij L23], 100 μg/mL human recombinant MMP2 enzyme and 1 mmol/L 4-Aminophenylmercuric acetate were mixed together, and reacted at 37° C. for 60 minutes. The human MMP2 activated through the reaction was poured into a 96-well microplate to reach a final concentration of 0.7 or 7 ng/mL.
Where a SMILES comes first, the peptide text is derived from it. [ ]: non-standard residue; d: D form. The star is where a group is joined. Benzoyl(4-O-C6H4-4-CONHMe) = CNC(=O)c1ccc(Oc2ccc(C(=O)*)cc2)cc1; Benzoyl(4-OPh) = O=C(c1ccc(Oc2ccccc2)cc1)*; X13 = Cc1ccc(C#Cc2ccc(S(=O)(=O)*)s2)cc1; NMeI = CC[C@H](C)[C@H](NC)C(=O)O; NMeM = CN[C@@H](CCSC)C(=O)O; β3hP = O=C(O)C[C@@H]1CCCN1; Dab = NCC[C@H](N)C(=O)O; Ava = NCCCCC(=O)O; GABA = NCCCC(=O)O
assay-readout: IC50 (nM)
Give the value in nM but do not write nM after it.

// sample CC[C@H](C)[C@@H](C(=O)N1CCC[C@H]1CC(N)=O)N(C)C(=O)[C@H](CC(C)C)NC(=O)[C@H](CCN)NC(=O)[C@H](CC(=O)O)NC(=O)[C@@H](NC(=O)CCCNC(=O)c1ccc(Oc2ccccc2)cc1)C(C)C [Compound 146] ({Benzoyl(4-OPh)-GABA}-VD[Dab]L[NMeI][β3hP]-NH2; N-terminus assumed) , its IC50 was 1.7

The value of IC50 measured for the compound CSCC[C@@H](C(=O)N1CCC[C@H]1C(N)=O)N(C)C(=O)[C@H](CC(C)C)NC(=O)[C@H](C)NC(=O)[C@H](CC(=O)O)NC(=O)[C@H](CC(N)=O)NC(=O)CCCNS(=O)(=O)c1ccc(C#Cc2ccc(C)cc2)s1 [Compound 588] ({X13-GABA}-NDAL[NMeM]P-NH2; N-terminus assumed) turned out to be 0.12

Just so you know, measured IC50 for CC[C@H](C)[C@@H](C(=O)N1CCC[C@H]1CC(N)=O)N(C)C(=O)[C@H](CC(C)C)NC(=O)[C@H](CCN)NC(=O)[C@H](CC(=O)O)NC(=O)[C@H](CCCNC(=N)N)NC(=O)CCCCNC(=O)c1ccc(Oc2ccc(C(=O)NC)cc2)cc1 [Compound 189] ({Benzoyl(4-O-C6H4-4-CONHMe)-Ava}-RD[Dab]L[NMeI][β3hP]-NH2; N-terminus assumed) came out at 0.86

====

target: MMP2 (Homo sapiens, UniProt P08253)
Sequence (P08253 110-660): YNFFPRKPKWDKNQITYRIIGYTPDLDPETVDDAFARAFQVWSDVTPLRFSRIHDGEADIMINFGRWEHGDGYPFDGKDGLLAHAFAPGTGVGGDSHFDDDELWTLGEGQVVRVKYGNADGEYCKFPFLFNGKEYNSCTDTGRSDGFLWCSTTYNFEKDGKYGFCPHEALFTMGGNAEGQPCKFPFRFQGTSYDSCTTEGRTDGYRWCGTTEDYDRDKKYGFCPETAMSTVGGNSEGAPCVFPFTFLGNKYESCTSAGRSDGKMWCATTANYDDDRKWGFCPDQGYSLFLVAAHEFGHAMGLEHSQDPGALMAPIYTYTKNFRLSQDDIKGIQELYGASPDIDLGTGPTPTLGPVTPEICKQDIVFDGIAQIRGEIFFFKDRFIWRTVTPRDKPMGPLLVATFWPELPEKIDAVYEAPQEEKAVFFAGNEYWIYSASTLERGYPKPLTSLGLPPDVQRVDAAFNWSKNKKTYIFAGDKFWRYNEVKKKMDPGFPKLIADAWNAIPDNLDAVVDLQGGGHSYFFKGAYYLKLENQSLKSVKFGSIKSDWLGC
procedure-text: Inhibitory effects on human MMP2 (Method 1), enzyme assay with MOCAc-Pro-Leu-Gly-Leu-A2pr(Dnp)-Ala-Arg-NH2 substrate, 96-well
Type: biochemical
run-conditions: Test Example No. 1-1 (Method 1, 96-well microplate); read-out: Human MMP2, IC50
Where a SMILES comes first, the peptide text is derived from it. [ ]: non-standard residue; d: D form. The star is where a group is joined. Benzoyl(4-O-C6H4-4-CONHMe) = CNC(=O)c1ccc(Oc2ccc(C(=O)*)cc2)cc1; Benzoyl(4-OPh) = O=C(c1ccc(Oc2ccccc2)cc1)*; NMeI = CC[C@H](C)[C@H](NC)C(=O)O; NMeN = CN[C@@H](CC(N)=O)C(=O)O; β3hP = O=C(O)C[C@@H]1CCCN1; Orn = NCCC[C@H](N)C(=O)O; Dab = NCC[C@H](N)C(=O)O; Ahx = NCCCCCC(=O)O; GABA = NCCCC(=O)O
assay-readout: IC50 (pM)
Give the quantity in pM, number only.

MMP2 (Homo sapiens, UniProt P08253) data for CC[C@H](C)[C@@H](C(=O)N1CCC[C@H]1CC(N)=O)N(C)C(=O)[C@H](CC(C)C)NC(=O)[C@H](CCN)NC(=O)[C@H](CC(=O)O)NC(=O)[C@H](CCCN)NC(=O)CCCNC(=O)c1ccc(Oc2ccccc2)cc1 [Compound 148] ({Benzoyl(4-OPh)-GABA}-[Orn]D[Dab]L[NMeI][β3hP]-NH2; N-terminus assumed) ; its IC50: 480

So the reported IC50 for CC[C@H](C)[C@@H](C(=O)N1CCC[C@H]1CC(N)=O)N(C)C(=O)[C@H](CC(C)C)NC(=O)[C@H](CCN)NC(=O)[C@H](CC(=O)O)NC(=O)[C@H](CCCCN)NC(=O)CCCCCNC(=O)c1ccc(Oc2ccc(C(=O)NC)cc2)cc1 [Compound 187] ({Benzoyl(4-O-C6H4-4-CONHMe)-Ahx}-KD[Dab]L[NMeI][β3hP]-NH2; N-terminus assumed) , on MMP2 (Homo sapiens, UniProt P08253), turned out to be 2800

Sample CC[C@H](C)[C@@H](C(=O)N1CCC[C@H]1CC(N)=O)N(C)C(=O)[C@H](CC(C)C)NC(=O)[C@H](CCN)NC(=O)[C@H](CC(=O)O)NC(=O)[C@H](CC(N)=O)N(C)C(=O)CCCNC(=O)c1ccc(Oc2ccccc2)cc1 [Compound 110] ({Benzoyl(4-OPh)-GABA}-[NMeN]D[Dab]L[NMeI][β3hP]-NH2; N-terminus assumed) , system: MMP2 (Homo sapiens, UniProt P08253). Its IC50 is 370
